Listed below: selective drug sensitivity score values for each entry.
test system: KARPAS-45; assay: selective drug sensitivity score (sDSS, relative to normal bone marrow) (sDSS (score)); higher = more potent and effective on the cell line relative to normal bone marrow cells; conditions: 72 h;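 also: ALL cell lines in 384-well plates, five doses spanning 10,000-fold, each plate scaled between vehicle and 100 µmol/L benzalkonium chloride controls, sDSS an adapted area-under-curve metric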

Examples with answers:
CNC(=O)c1cccc2cc(Oc3ccnc4cc(OCC5(N)CC5)c(OC)cc34)ccc12 [Lucitanib] (top concentration 10000 nM); 3.18
C/C=C1\NC(=O)[C@H]2CSSCC/C=C/[C@H](CC(=O)N[C@H](C(C)C)C(=O)N2)OC(=O)[C@H](C(C)C)NC1=O [Romidepsin] (top concentration 1000 nM); 2.86
NCC(=O)Nc1ccc(-n2nc(C(F)(F)F)cc2-c2ccc3c(ccc4ccccc43)c2)cc1 (top concentration 25000 nM); 6.9

In: Could you tell me which selective drug sensitivity score is on file for COc1ccc(Cn2ccc3ccc(C(=O)NO)cc32)cc1 (top concentration 10000 nM) ?
Out: 2.94

In: Name the recorded selective drug sensitivity score for Cc1ccc(C(=O)N(CCCN)[C@@H](c2oc3cc(Cl)ccc3c(=O)c2Cc2ccccc2)C(C)C)cc1 (top concentration 100 nM) .
Out: 7.16

In: State the recorded selective drug sensitivity score for this entry: CCn1c(-c2nonc2N)nc2cnc(Oc3cccc(NC(=O)c4ccc(OCCN5CCOCC5)cc4)c3)cc21 (top concentration 10000 nM)
Out: 15.2

In: Name the reported selective drug sensitivity score value associated with the compound CC(C)Cn1cnc2c(N)nc3ccccc3c21 [Imiquimod] (top concentration 2500 nM)
Out: 0

In: Quick one: selective drug sensitivity score of Sc1ncnc2nc[nH]c12 [Mercaptopurine] (top concentration 10000 nM) ?
Out: 17.1

In: Please look up its selective drug sensitivity score: COc1ccc(S(=O)(=O)Nc2cccnc2Nc2ccc(O)cc2)cc1 [ABT-751] (top concentration 10000 nM)
Out: 12.2

###

system: COG-LL-394h; assay: selective drug sensitivity score (sDSS, relative to normal bone marrow) (sDSS (score)); higher = more potent and effective on the cell line relative to normal bone marrow cells; settings: 72 h
Tick Y if selective drug sensitivity score is 0.9 or greater. Tick N if selective drug sensitivity score is less than 0.9.

See these solved cases before continuing.
COc1ccc(S(=O)(=O)Nc2cccnc2Nc2ccc(O)cc2)cc1 [ABT-751] (top concentration 10000 nM); Y
COc1ccccc1S(=O)(=O)Nc1ccc2c(c1)CN(C)C(=O)N2 [PFI-1] (top concentration 30000 nM); N
Nc1nc(OCc2cc(Br)cs2)c2[nH]cnc2n1 [Lomeguatrib] (top concentration 10000 nM); N
C=CCc1cccc(/C=N/NC(=O)CN2CCN(Cc3ccccc3)CC2)c1O [PAC-1] (top concentration 10000 nM); Y
Sc1ncnc2nc[nH]c12 [Mercaptopurine] (top concentration 10000 nM); N
COc1ccc(Cn2ccc3ccc(C(=O)NO)cc32)cc1 (top concentration 10000 nM); Y

Now, please, on to the next compound.
In: In plain terms: is recorded selective drug sensitivity score at least 0.9 for CCCN(CCC)C(=O)C1=Cc2ccc(-c3ccc(C(=O)N4CCCC4)cc3)cc2N=C(N)C1 [Motolimod] (top concentration 10000 nM) ?
Out: N

###

tested on: MHH-CALL-3; experiment: selective drug sensitivity score (sDSS, relative to normal bone marrow) (sDSS (score)); higher = more potent and effective on the cell line relative to normal bone marrow cells; settings: 72 h
quantity_name: selective drug sensitivity score
I'd appreciate a reply containing only the number, no unit.

Illustrative cases are given below, each with its answer.
Cn1nccc1Nc1nccc(-c2ccn([C@H](CO)c3ccc(Cl)c(F)c3)c(=O)c2)n1 [Ravoxertinib] (top concentration 10000 nM); 9.7
C=CC(=O)N1CCC(Oc2cc3c(Nc4ccc(Cl)c(Cl)c4F)ncnc3cc2OC)CC1 [Poziotinib] (top concentration 1000 nM); 3.08
C[C@]12CC[C@@H]3c4ccc(O)cc4C[C@@H](CCCCCCCCC[S+]([O-])CCCC(F)(F)C(F)(F)F)[C@H]3[C@@H]1CC[C@@H]2O (stereo partly specified) [Fulvestrant] (top concentration 1000 nM); 0
CC[C@@H](C(=O)[C@@H](C)[C@@H](O)[C@H](C)[C@@H]1O[C@@H]([C@@H](CC)C(=O)O)CC[C@@H]1C)[C@H]1O[C@]2(C=C[C@@H](O)[C@]3(CC[C@@](C)([C@H]4CC[C@](O)(CC)[C@H](C)O4)O3)O2)[C@H](C)C[C@@H]1C [Salinomycin] (top concentration 50000 nM); -3.3

In: Please report the recorded selective drug sensitivity score for Nc1ncn([C@@H]2O[C@H](CO)[C@@H](O)[C@H]2O)c(=O)n1 [Azacitidine] (top concentration 10000 nM) .
Out: 4.24

In: // returns reported selective drug sensitivity score for input Cc1c(F)cc(C(=O)NC2CC2)cc1-c1ccc(C(=O)NCC(C)(C)C)cn1 [Losmapimod] (top concentration 10000 nM)
Out: -0.18

###

system: MOLT-14; assay: selective drug sensitivity score (sDSS, relative to normal bone marrow) (sDSS (score)); higher = more potent and effective on the cell line relative to normal bone marrow cells; settings: 72 h
quantity_name: selective drug sensitivity score
API doc: respond with a numeric literal and nothing else, no unit.

COc1cc(N2CCC(N3CCN(C)CC3)CC2)ccc1Nc1ncnc(Nc2ccccc2S(=O)(=O)C(C)C)n1 [ASP3026] (top concentration 10000 nM); 1.36
COc1cc(N2CCC(N3CCN(C)CC3)CC2)ccc1Nc1ncc(Cl)c(Nc2ccccc2P(C)(C)=O)n1 [Brigatinib] (top concentration 1000 nM); 3.16
CCCOc1ccn2c(C(C)=O)cc(-c3ccccc3S(C)(=O)=O)c2c1 [GSK2801] (top concentration 10000 nM); 2.64
Cc1ccc(C(=O)N(CCCN)[C@@H](c2oc3cc(Cl)ccc3c(=O)c2Cc2ccccc2)C(C)C)cc1 (top concentration 100 nM); 3.76
CC(C)Cn1cnc2c(N)nc3ccccc3c21 [Imiquimod] (top concentration 2500 nM); 0

In: Returns the measured selective drug sensitivity score for the input compound. Input: CNC(=O)c1nn(C)c2c1C(C)(C)Cc1cnc(Nc3ccc(N4CCN(C)CC4)cc3)nc1-2 [Milciclib] (top concentration 10000 nM)
Out: 7.04

###

tested on: PEER; assay: selective drug sensitivity score (sDSS, relative to normal bone marrow) (sDSS (score)); higher = more potent and effective on the cell line relative to normal bone marrow cells; conditions: 72 h
Classify by measured selective drug sensitivity score: true (1) if it is equal to or exceeds -0.7, false (0) if it is smaller.

Below, 3 molecules whose answers are already recorded.
CN1CC[C@H](c2c(O)cc(O)c3c(=O)cc(-c4ccccc4Cl)oc23)[C@H](O)C1 [Alvocidib] (top concentration 10000 nM); false (0)
Cc1cc(C(C)Nc2ccccc2)c2nc(N3CCOCC3)cc(=O)n2c1 (stereo unspecified) [TGX-221] (top concentration 10000 nM); false (0)
O=C1c2c(O)ccc(O)c2C(=O)c2c(NCCNCCO)ccc(NCCNCCO)c21 [Mitoxantrone] (top concentration 1000 nM); false (0)

In: Hi team, for CN1CCN(c2nc(C3=C(c4c[nH]c5ccccc45)C(=O)NC3=O)c3ccccc3n2)CC1 [Sotrastaurin] (top concentration 10000 nM) , is the recorded selective drug sensitivity score at or above -0.7?
Out: true (1)

In: Given O[C@H]1CC[C@H](Nc2ncc3nc(Nc4c(F)cc(F)cc4F)n([C@H]4CCOC4)c3n2)CC1 [Tanzisertib] (top concentration 10000 nM) , state whether its selective drug sensitivity score is at least -0.7.
Out: true (1)

In: hey, is selective drug sensitivity score for this one >= -0.7? Cc1cc(OCc2nnc(SC3CCCC3)n2-c2cccnc2)ccc1-c1ccc(S(C)(=O)=O)cc1 [NMS-873] (top concentration 10000 nM)
Out: true (1)

###

system: ALL-PO; experiment: selective drug sensitivity score (sDSS, relative to normal bone marrow) (sDSS (score)); higher = more potent and effective on the cell line relative to normal bone marrow cells; conditions: 72 h
Is selective drug sensitivity score at least 3? Then yes (1). If not, no (0).

Example entries and their recorded answers appear below.
CC1(C)OCCn2c1nc1c(N3CCOCC3)nc(-c3cnc(N)nc3)nc12 [GDC-0084] (top concentration 10000 nM); yes (1)
COc1cccc(-c2ccc(NC(=O)C3=C(C(=O)O)CCC3)c(F)c2)c1 [Vidofludimus] (top concentration 10000 nM); no (0)
O=C(Nc1cc(Oc2cc(F)c(NC(=O)C3(C(=O)Nc4ccc(F)cc4)CC3)cc2F)ccn1)C1CC1 [Altiratinib] (top concentration 10000 nM); yes (1)
CC1(C)CNc2cc(NC(=O)c3cccnc3NCc3ccncc3)ccc21 [Motesanib] (top concentration 10000 nM); no (0)
N#Cc1ccc(COC[C@H]2O[C@@H](n3c(NCc4ccc(Cl)c(Cl)c4)nc4c(N)ncnc43)[C@H](O)[C@@H]2O)cc1 (top concentration 10000 nM); yes (1)

In: Determine whether measured selective drug sensitivity score meets or exceeds 3 for Cc1ccc(F)c(NC(=O)Nc2ccc(-c3cccc4[nH]nc(N)c34)cc2)c1 [Linifanib] (top concentration 1000 nM)
Out: no (0)

In: Decide: selective drug sensitivity score of CC1=NN(c2ccc(C(=O)O)cc2)C(=O)C1=Cc1ccc(-c2cc(C)c(C)cc2[N+](=O)[O-])o1 [C646] (top concentration 25000 nM) >= 3?
Out: yes (1)

In: Reported selective drug sensitivity score reaches at least 3 for CCN1C(=O)CNc2ncc(-c3ccc(-c4nc[nH]n4)nc3C)nc21 [CC-115] (top concentration 10000 nM) ?
Out: yes (1)

In: Check if selective drug sensitivity score >= 3 (inclusive). Item: Nc1nc(OCc2cc(Br)cs2)c2[nH]cnc2n1 [Lomeguatrib] (top concentration 10000 nM)
Out: no (0)

In: Could you verify whether the entry NC(=O)c1cccc(-c2cccc(OC(=O)NC3CCCCC3)c2)c1 [URB597] (top concentration 1000 nM) shows selective drug sensitivity score of no less than 3?
Out: no (0)

In: Form field: selective drug sensitivity score at least 3? Entry: Cc1nc(Nc2ncc(C(=O)Nc3c(C)cccc3Cl)s2)cc(N2CCN(CCO)CC2)n1 [Dasatinib] (top concentration 1000 nM)
Out: no (0)

In: Could you please find out whether CC(C)(C)c1cnc(CSc2cnc(NC(=O)C3CCNCC3)s2)o1 [SNS-032] (top concentration 10000 nM) has selective drug sensitivity score that meets 3 or exceeds it?
Out: no (0)

In: Could you please find out whether COc1cc(Br)c(Nc2nc(-c3c(C)nc4ncccn34)cs2)c(Br)c1 [PTC-209] (top concentration 10000 nM) has selective drug sensitivity score that meets 3 or exceeds it?
Out: no (0)
